meta.source: patent US20180118789A1

Measured target: mouse melanocortin 5 receptor (mouse, UniProt P41149 1-325)
Sequence (P41149 whole entry): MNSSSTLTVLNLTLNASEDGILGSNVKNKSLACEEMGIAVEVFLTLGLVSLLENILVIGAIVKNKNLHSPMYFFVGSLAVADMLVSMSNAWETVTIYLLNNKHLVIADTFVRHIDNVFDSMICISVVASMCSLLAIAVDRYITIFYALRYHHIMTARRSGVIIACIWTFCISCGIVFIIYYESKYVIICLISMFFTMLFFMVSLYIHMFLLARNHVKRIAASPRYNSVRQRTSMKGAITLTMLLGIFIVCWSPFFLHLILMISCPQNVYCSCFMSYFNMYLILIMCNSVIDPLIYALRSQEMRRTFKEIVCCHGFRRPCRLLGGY
Experimental protocol: cell-based or functional assay
Non-standard residues stand in square brackets, D forms with d. Dap = NC[C@H](N)C(=O)O
Readout label: EC50 (nM), agonist, cAMP AlphaScreen

>  <Binder>
cyclo(PH[dF]RW[Dap]A[dP]) (also: TFA salt) [MDE6-5-2c, c[Pro-His-DPhe-Arg-Trp-Dap-Ala-DPro]]

>  <Readout label>
EC50 (nM), agonist, cAMP AlphaScreen

>  <Unit string>
nM

>  <Measured result>
0.3

$$$$
>  <Binder>
cyclo(PH[dF]RWNAF[dP]) (also: TFA salt) [MDE5-149-2c, c[Pro-His-DPhe-Arg-Trp-Asn-Ala-Phe-DPro]]

>  <Readout label>
EC50 (nM), agonist, cAMP AlphaScreen

>  <Unit string>
nM

>  <Measured result>
0.45

$$$$
>  <Binder>
cyclo(PH[dF]RW[Dap]AF[dP]) (also: TFA salt) [MDE5-151-2c, c[Pro-His-DPhe-Arg-Trp-Dap-Ala-Phe-DPro]]

>  <Readout label>
EC50 (nM), agonist, cAMP AlphaScreen

>  <Unit string>
nM

>  <Measured result>
18

$$$$
>  <Binder>
cyclo(PH[dF]RW[Dap][dP]) (also: TFA salt) [MDE6-12-2c, c[Pro-His-DPhe-Arg-Trp-Dap-DPro]]

>  <Readout label>
EC50 (nM), agonist, cAMP AlphaScreen

>  <Unit string>
nM

>  <Measured result>
330

$$$$
>  <Binder>
cyclo(P[dF]RW[Dap]A[dP]) (also: TFA salt) [MDE6-5-1c, c[Pro-DPhe-Arg-Trp-Dap-Ala-DPro]]

>  <Readout label>
EC50 (nM), agonist, cAMP AlphaScreen

>  <Unit string>
nM

>  <Measured result>
48

$$$$
>  <Binder>
cyclo(P[dF]RWNA[dP]) (also: TFA salt) [MDE6-3-1c, c[Pro-DPhe-Arg-Trp-Asn-Ala-DPro]]

>  <Readout label>
EC50 (nM), agonist, cAMP AlphaScreen

>  <Unit string>
nM

>  <Measured result>
70

$$$$
>  <Binder>
cyclo(PH[dF]RW[dP]) (also: TFA salt) [MDE5-147-2c, c[Pro-His-DPhe-Arg-Trp-DPro]]

>  <Readout label>
EC50 (nM), agonist, cAMP AlphaScreen

>  <Unit string>
nM

>  <Measured result>
6000

$$$$
>  <Binder>
cyclo(P[dF]RW[Dap]AF[dP]) (also: TFA salt) [MDE5-151-1c, c[Pro-DPhe-Arg-Trp-Dap-Ala-Phe-DPro]]

>  <Readout label>
EC50 (nM), agonist, cAMP AlphaScreen

>  <Unit string>
nM

>  <Measured result>
46

$$$$
>  <Binder>
cyclo(P[dF]RWNAF[dP]) (also: TFA salt) [MDE5-149-1c, c[Pro-DPhe-Arg-Trp-Asn-Ala-Phe-DPro]]

>  <Readout label>
EC50 (nM), agonist, cAMP AlphaScreen

>  <Unit string>
nM

>  <Measured result>
40

$$$$
>  <Binder>
cyclo(PH[dF]RWN[dP]) (also: TFA salt) [MDE6-10-2c, c[Pro-His-DPhe-Arg-Trp-Asn-DPro]]

>  <Readout label>
EC50 (nM), agonist, cAMP AlphaScreen

>  <Unit string>
nM

>  <Measured result>
16.8

$$$$
>  <Binder>
cyclo(PH[dF]RWNA[dP]) (also: TFA salt) [MDE6-3-2c, c[Pro-His-DPhe-Arg-Trp-Asn-Ala-DPro]]

>  <Readout label>
EC50 (nM), agonist, cAMP AlphaScreen

>  <Unit string>
nM

>  <Measured result>
2.1

$$$$
